TARGET OF ASSAY: human ether-à-go-go-related gene (hERG) potassium channel (human);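 further: peak tail current of the secondary pulse compared with the same well before compound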
TEST DESCRIPTION: primary screen, population patch clamp on CHO cells stably expressing hERG; higher = less effect of the substance
The whole screen tested about 310,000 compounds, of which about 14,000 (4.5%) showed an effect of 50% or more. Effects have a minus sign here. The sample holds strong results, similar compounds and a random draw of the others, so the mix is not that of the screen.
ENDPOINT: hERG current change (%, negative = inhibition) at 10uM (%)

# COMPOUND, ENDPOINT RESULT
records = [
    ("Cc1cc(/C=N/NC(N)=O)c(C)n1-c1ccc(F)cc1", -2.06),
    ("CC(=O)NCCC(=O)N1CCCC(CNC(=O)c2ccc(-c3ccccc3)cc2)C1 (stereo not shown)", -0.511),
    ("CN(C(=O)c1cc(COc2ccc(F)c(F)c2)on1)C1CCOC1 (stereo not shown)", -13.1),
    ("CCOCc1cc(CN2CCC(CCC(=O)NC3CC3)CC2)ccc1OC", -62.1),
    ("CCOc1ccc(OCCC(=O)N(CC)CC(=O)Nc2c(F)cccc2F)cc1", -60.2),
    ("O=C(C(=O)N1CCCc2ccccc21)c1c[nH]c2ccccc12", 4.5),
    ("C[C@@H]1CC[C@]2(O[C@H](CCO)C[C@@H](O)[C@@H]2O)O1", 0.536),
    ("COc1ccccc1CC(=O)N1CCC(CCC(=O)NC2CC2)CC1", 13.8),
    ("Cc1cccc(C(=O)N2CCN(c3ncnc4c3cnn4-c3ccccc3)CC2)c1", -19.4),
    ("Cc1ccc(OCc2cc(C(=O)N(C)CC3CCOCC3)no2)cc1C", -13.1),
    ("CCN(CC(=O)Nc1c(F)cccc1F)C(=O)CCOc1ccc(C)cc1", -2.71),
    ("COc1cc(Cl)c(CN2CCC(CCC(=O)NC3CC3)CC2)cc1OC", -66.2),
    ("COc1cc(Br)c(CC(=O)NC2CC2)cc1OC", 17.8),
    ("COc1ccc(C(=O)Nc2cc([N+](=O)[O-])ccc2N2CCCC2)cc1", -1.57),
    ("COc1cc(Cl)cc(CN2CCC(CCC(=O)NC3CC3)CC2)c1OC", -20.8),
    ("Cc1cccc(NC(=O)COC(=O)Cc2cccc(C(F)(F)F)c2)c1C", 22.8),
    ("CCC(C)(C)n1nnnc1C(c1cc2ccc(OC)cc2[nH]c1=O)N1CCCCC1 (stereo not shown)", -26.3),
    ("CCC(=O)N1CCN(c2ccc(NC(=S)NC(=O)c3cccc([N+](=O)[O-])c3)cc2)CC1", 2.13),
    ("CCN(CC(=O)NCc1ccc(Cl)cc1)C(=O)CCOc1ccccc1C", -71),
    ("COc1cc(CC(=O)OCC(=O)NC2CC2)cc(OC)c1OC", 10.4),
    ("O=NNc1nc2ccccc2n1Cc1ccccc1", -1.83),
    ("O=C(CCNC(=O)c1ccc(Br)cc1)NCc1ccccc1F", -13),
    ("C=CCNc1cnn(-c2ccc(C)cc2)c(=O)c1Sc1ccc(C)cc1", -79.4),
    ("Cc1cc(OCc2cc(C(=O)N(C)CCCN3CCOCC3)no2)cc(C)c1Cl", -58),
    ("O=C(NC(=S)Nc1ccccc1N1CCCCC1)c1ccc(-c2cccc([N+](=O)[O-])c2)o1", 4.88),
    ("COc1ccc(S(=O)(=O)Nc2ccc(S(=O)(=O)Nc3nccs3)cc2)cc1", 19.9),
    ("CN1CCN(c2ccc(S(=O)(=O)N3CCCCC3)cc2NC(=O)c2cccc([N+](=O)[O-])c2)CC1", -65.8),
    ("CCOc1ccccc1NC(=O)Nc1cc(S(=O)(=O)N(C)C)ccc1C", 15),
    ("Cc1ccccc1C(N)c1ccncc1.Cl (stereo not shown)", 2.52),
    ("Cc1cc(OCc2cc(C(=O)N(C)CC3CCOCC3)no2)cc(C)c1Cl", -69),
    ("Cc1cc(OCc2cc(C(=O)N(C)C3CCOC3)no2)cc(C)c1Cl (stereo not shown)", -73.6),
    ("CC(Oc1ccc(Br)cc1)C(=O)Nc1ccc(S(=O)(=O)N(C)C2CCN(C)CC2)cc1 (stereo not shown)", -26.7),
    ("Cc1cc(OCc2cc(C(=O)N(C)C3CCOCC3)no2)cc(C)c1Cl", -13.5),
    ("CN1CCN(c2ccc(S(=O)(=O)N3CCCCC3)cc2NC(=O)c2ccc3ccccc3c2)CC1", -40.4),
    ("CC(=O)N1CCN(c2ccccc2NC(=O)c2ccc(-c3cccc([N+](=O)[O-])c3)o2)CC1", -75.4),
    ("CCOc1ccc(OCCCC(=O)N(CC)CC(=O)Nc2c(F)cccc2F)cc1", -5.99),
    ("CN1CCN(c2ccc(S(=O)(=O)N3CCCCC3)cc2NC(=O)c2ccc(C#N)cc2)CC1", -41.7),
    ("CCOc1ccc2c(c1)nc(C)n2C", 11.7),
    ("COc1ccc(OC)c(C(=O)N2CCC(CCC(=O)NC3CC3)CC2)c1", 13.1),
    ("COc1ccc(C(=O)Nc2cc([N+](=O)[O-])ccc2N2CCN(C)CC2)cc1", -30.3),
]

====

TARGET OF ASSAY: human ether-à-go-go-related gene (hERG) potassium channel (human, UniProt Q12809);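 further: peak tail current of the secondary pulse compared with the same well before compound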
Sequence (Q12809 whole entry, looked up): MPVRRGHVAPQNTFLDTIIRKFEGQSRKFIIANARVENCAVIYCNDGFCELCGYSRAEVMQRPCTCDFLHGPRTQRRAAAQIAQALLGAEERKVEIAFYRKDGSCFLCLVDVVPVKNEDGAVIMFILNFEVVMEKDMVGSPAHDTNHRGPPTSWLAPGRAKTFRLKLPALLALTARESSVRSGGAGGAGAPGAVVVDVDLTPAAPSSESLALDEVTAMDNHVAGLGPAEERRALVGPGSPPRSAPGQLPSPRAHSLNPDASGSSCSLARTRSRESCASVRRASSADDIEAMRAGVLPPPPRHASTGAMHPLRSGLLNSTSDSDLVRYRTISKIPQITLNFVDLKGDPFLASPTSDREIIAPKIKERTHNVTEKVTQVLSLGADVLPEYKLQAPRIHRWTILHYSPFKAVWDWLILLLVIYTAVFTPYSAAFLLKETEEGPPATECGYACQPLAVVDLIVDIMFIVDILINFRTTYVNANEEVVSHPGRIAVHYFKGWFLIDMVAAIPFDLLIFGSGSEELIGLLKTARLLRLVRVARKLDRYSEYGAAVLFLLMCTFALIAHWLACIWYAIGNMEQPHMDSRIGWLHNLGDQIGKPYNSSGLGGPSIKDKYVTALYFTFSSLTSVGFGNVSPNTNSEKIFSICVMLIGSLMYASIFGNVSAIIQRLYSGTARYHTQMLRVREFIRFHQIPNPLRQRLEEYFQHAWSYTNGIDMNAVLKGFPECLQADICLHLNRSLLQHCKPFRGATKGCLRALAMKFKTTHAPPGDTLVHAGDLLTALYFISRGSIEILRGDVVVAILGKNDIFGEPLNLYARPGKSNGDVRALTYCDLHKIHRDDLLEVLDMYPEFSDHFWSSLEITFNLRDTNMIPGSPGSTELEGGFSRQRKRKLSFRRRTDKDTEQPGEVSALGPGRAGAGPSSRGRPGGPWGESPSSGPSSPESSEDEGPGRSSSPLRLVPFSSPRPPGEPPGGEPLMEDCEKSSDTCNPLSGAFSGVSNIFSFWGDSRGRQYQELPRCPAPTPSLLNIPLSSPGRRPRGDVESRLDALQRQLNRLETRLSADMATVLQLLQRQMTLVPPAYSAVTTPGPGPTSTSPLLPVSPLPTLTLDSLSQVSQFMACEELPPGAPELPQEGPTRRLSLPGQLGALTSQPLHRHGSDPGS
TEST DESCRIPTION: primary screen, population patch clamp on CHO cells stably expressing hERG; higher = less effect of the substance
In all, about 310,000 compounds went through this assay and about 14,000 (4.5%) showed an effect of 50% or more. The effect is printed as a negative number. This excerpt belongs to a sample that is enriched for strong results.
ENDPOINT: hERG current change (%, negative = inhibition) at 10uM (%)

# COMPOUND, ENDPOINT RESULT
records = [
    ("CC(C)(C)c1ccc(C(=O)c2c[nH]c(C(=O)NCCCn3ccnc3)c2)cc1", -71.3),
    ("O=C(CCNC(=O)c1ccco1)Nc1ccc(Cl)c(C(F)(F)F)c1", -16.3),
    ("CCN(CC)CCNC(=O)c1ccc(NC(=O)c2ccc(Cl)c(S(=O)(=O)N3CCCCCC3)c2)cc1.Cl", -24),
    ("O=C(NCC(O)c1ccccc1)c1ccc(Cl)c(S(=O)(=O)N2CCCCC2)c1 (centres unmarked)", 8.95),
    ("O=C(NCCCN1CCCC1=O)c1ccc(Cl)c(S(=O)(=O)N2CCCCC2)c1", -24.1),
]

====

Measured hERG current change (%, negative = inhibition) at 10uM, listed per entry.
TARGET OF ASSAY: human ether-à-go-go-related gene (hERG) potassium channel (human);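 further: peak tail current of the secondary pulse compared with the same well before compound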
TEST DESCRIPTION: primary screen, population patch clamp on CHO cells stably expressing hERG; higher = less effect of the substance
In all, about 310,000 compounds went through this assay and about 14,000 (4.5%) showed an effect of 50% or more. The effect is printed as a negative number. The sample as a whole holds a higher share of strong results than the screen did.
ENDPOINT: hERG current change (%, negative = inhibition) at 10uM (%)

# MOLECULE, ENDPOINT RESULT
records = [
    ("COc1ccc(NS(=O)(=O)c2cc3c4c(c2)C(C)C(=O)N4CCC3)cc1 (stereo not drawn)", 10.3),
    ("O=c1c2cc(NC(=S)NCCCN3CCC(Cc4ccccc4)CC3)ccc2nc2n1CCCCC2", -82.1),
    ("Cc1n[nH]c(C)c1S(=O)(=O)NCCc1ccc(Cl)cc1", 5),
    ("CCOc1ccc(C(=O)NCC(=O)Nc2ccncc2)cc1OCC", 4.58),
    ("CN(C)S(=O)(=O)N1CCN(CC(O)COc2ccc3cc(Br)ccc3c2)CC1 (stereo not drawn)", -25.6),
    ("CCOc1cccc2cc(C(=O)N3CCOCC3)c(=O)oc12", 14.6),
    ("CCOc1ccc(NC(=O)C2C3C=CC4(O3)C2C(=O)N(Cc2cccnc2)C4C(=O)NC2CCCCC2)cc1 (stereo not drawn)", 16),
    ("CCOc1ccccc1C(=O)NCC(=O)Nc1ncccc1C", 14),
    ("CCOc1ccc(-n2c(C)cc(C(=O)NS(=O)(=O)c3ccc(C)cc3)c2C)cc1", -32.3),
    ("CCOC(=O)C1(CCOc2ccccc2)CCN(Cc2ccc(OC)c(COC)c2)CC1", -80.2),
    ("CCC(=O)c1ccc(OCC(O)CN2CCN(S(=O)(=O)N3CCCCC3)CC2)cc1 (stereo not drawn)", -55.1),
    ("O=c1c2cc(NC(=S)NC3CCN(Cc4ccccc4)CC3)ccc2nc2n1CCCCC2", -10.4),
    ("CCOC(=O)C1(Cc2ccccc2)CCCN(Cc2ccc(OCC)c(CO)c2)C1 (stereo not drawn)", -52.3),
    ("Cc1cc(=O)oc(C)c1C(=O)NCc1ccccc1", 11.2),
    ("CCCCN(C)CCN1C(=O)C2C(C(=O)Nc3ccc(Cl)cc3)C3C=CC2(O3)C1C(=O)NC1CCCCC1 (stereo not drawn)", -70.2),
    ("CCOc1ccccc1C(=O)NCC(=O)NC(C)c1ccc(-n2ccnc2)cc1 (stereo not drawn)", -70.9),
    ("CC1(C)SC(=S)N(/N=C/c2ccc(O)cc2)C1N(O)C(=O)Nc1ccc([N+](=O)[O-])cc1 (stereo not drawn)", -10.2),
    ("CCCCN(CCCNC(=O)c1c(C)cc(=O)oc1C)c1ccccc1", -64.4),
    ("Cc1ccc2nc(-c3cccnc3)c(NC3CCCC3)n2c1", -19.7),
    ("O=C(c1ccccc1)c1ccc(OCC(O)CN2CCOCC2)cc1 (stereo not drawn)", -10.8),
    ("CCN(CCCNC(=O)c1c(C)cc(=O)oc1C)c1ccccc1", -52.7),
    ("COCCCNC(=S)Nc1ccc2nc3n(c(=O)c2c1)CCCCC3", 7.89),
    ("CCOc1ccc(C(=O)NCC(=O)NC(C)c2ccc(-n3ccnc3)cc2)cc1OCC (stereo not drawn)", -77.4),
    ("CC(NC(=O)c1ccccc1C(=O)O)c1ccc(-n2ccnc2)cc1 (stereo not drawn)", 16),
    ("CCN(CCCNC(=O)c1c(C)cc(=O)oc1C)c1cccc(C)c1", -65.3),
    ("CCCN(CCC)CCN1C(=O)C2C(C(=O)Nc3ccc(C)cc3)C3C=CC2(O3)C1C(=O)NC1CCCCC1 (stereo not drawn)", -30.2),
    ("CC(C)CCNC(=S)Nc1ccc2nc3n(c(=O)c2c1)CCCCC3", -46.2),
    ("CSc1cccc(NC(=O)C2C3C=CC4(O3)C2C(=O)N(CCN2CCOCC2)C4C(=O)NC2CCCCC2)c1 (stereo not drawn)", 9.21),
    ("O=c1c2cc(NC(=S)NC3CC3)ccc2nc2n1CCCCC2", 0.786),
    ("O=c1c2cc(NC(=S)NC3CCCCC3)ccc2nc2n1CCCCC2", -70.2),
    ("CCOc1ccccc1C(=O)NC(C)c1ccc(-n2ccnc2)cc1 (stereo not drawn)", -57.5),
    ("Cn1cc2cccc([N+](=O)[O-])c2n1", 2.69),
    ("CCOC(=O)C1(CCOc2ccccc2)CCN(Cc2ccc(OCC)c(CO)c2)CC1", -79.5),
    ("COc1ccc(NC(=S)N2CCN(C(=O)C3CCCO3)CC2)cc1 (stereo not drawn)", 11.8),
    ("Cc1cc(=O)oc(C)c1C(=O)NCCc1ccccc1", 7.49),
    ("COC(=O)c1cc(C(=O)NNC(=O)c2ccc3c(c2)OCO3)cc([N+](=O)[O-])c1", -7.98),
    ("CCC(=O)c1ccc(OCC(O)CN2CCN(S(=O)(=O)c3ccc(NC(C)=O)cc3)CC2)cc1 (stereo not drawn)", -20.5),
    ("CCOC(=O)C1(Cc2ccccc2)CCCN(Cc2ccc(OCCO)cc2)C1 (stereo not drawn)", -1.04),
    ("CCCN(CCC)CCN1C(=O)C2C(C(=O)Nc3cccc(SC)c3)C3C=CC2(O3)C1C(=O)NC1CCCCC1 (stereo not drawn)", -68.2),
]

This collection of values is drawn from paper PMC4336329.
